# System: SW-620 colon
# test-description: NCI-60 one-dose screen, 48 h (100 = growth as untreated, 0 = no growth, -100 = all killed)
# conditions-used: 10 µM unless noted
The panel holds about 83,000 compounds, 20% with a hit somewhere; the sample as a whole holds those more often.
Just a reminder that ties go to Not fulfilled: only growth strictly below 20% counts as Fulfilled.

COC1=C(C)C(=O)c2c(c(CCCl)c3n2CCC3OC(C)=O)C1=O (stereo not given); Fulfilled
Cc1c(C(=O)NCCN2CCOCC2)cn2ncnc(Oc3ccc(NC(=O)Nc4ccc(Cl)c(C(F)(F)F)c4)cc3)c12; Fulfilled
CCc1ccccc1-n1c(N)c(C#N)c(-c2ccc(Cl)cc2)c(C#N)c1=O; Not fulfilled
O=C(/C=C/c1cccc2ccccc12)c1ccc(NC(=O)c2ccccc2CN2C(=O)c3ccccc3C2=O)cc1; Not fulfilled
Cc1oc2nc[nH]c(=O)c2c1C(=O)/C=C/c1ccc(Br)cc1; Fulfilled

Exam item: I'd appreciate it if you could check whether "COc1ccn2c(C(C)=O)cc(C(=O)c3ccc4c(c3)Sc3ccccc3N4)c2c1" has growth smaller than 20%.
Marked response: Not fulfilled

Exam item: Now this one: "Fc1cc(-c2nnc3sc(-c4ccc(Cl)cc4Cl)nn23)c(Cl)cc1Cl"
Marked response: Not fulfilled

----------
# System: SK-OV-3 ovarian
# test-description: NCI-60 one-dose screen, 48 h (100 = growth as untreated, 0 = no growth, -100 = all killed)
# conditions-used: 10 µM unless noted
The panel holds about 83,000 compounds, 20% with a hit somewhere; the sample as a whole holds those more often.
property-label: growth (%)
Numeric answer only, unit % assumed.

COc1ccccc1/C=C1\Oc2cc(OCCN3CCC(Cc4ccccc4)CC3)ccc2C1=O; 106
CCS(=O)(=O)c1ncnc2nc[nH]c12; 95.2

Exam item: // map "Cc1c(C(=O)NCCCc2ccccc2)sc2ncc(-c3ccc(Br)cc3)n12" to recorded growth (system: SK-OV-3 ovarian)
Marked response: 99.5

Exam item: One more compound: "Oc1ccc(C#CCOc2ccccc2)cc1CNCCN(Cc1ccccn1)Cc1ccccn1"
Marked response: 18

Exam item: What about this compound? "O=C(Nc1ccc(Cl)cc1F)c1cc(Cl)ccc1O"
Marked response: 9.05

Exam item: Would you mind doing "O=C1c2cccc3cccc(c23)C(=O)N1Nc1nc(NC2CCCCC2)nc(N2CCOCC2)n1" as well?
Marked response: 95.7

----------
# Test system: PC-3 prostate
# test-description: NCI-60 one-dose screen, 48 h
# conditions-used: 10 µM unless noted
About 83,000 compounds went through this panel and 20% of them were active in at least one assay; those are over-represented in the sample as a whole. Calls of active or inactive are those of the source. Rule for the calls: active = growth percent below 10; inactive = the rest.
Bench note: report the call from active, inactive

Solved cases (3 shown):
Cc1ccc(C(=O)N/N=C/c2cccc([N+](=O)[O-])c2)cn1; inactive
COc1ccc2sc3c(NCCCN(C)C)nc4ccccc4c3c(=O)c2c1; inactive
CCN(CC)c1ccc(C2=NN(C(C)=O)C(c3cc(OC)c(OC)c(OC)c3)C2)cc1 (stereo not given); inactive

Exam item: Hi, do you know how Cc1ccc(C2CC(c3ccc(Nc4ccnc5cc(Cl)ccc45)cc3)=NN2C=O)cc1 (stereo not given) came out in this test?
Marked response: inactive

Exam item: Now the compound "O=C(Nc1ccc(I)cc1F)c1cc(I)ccc1O"
Marked response: active

Exam item: // next record "C/C(=N/NC(N)=S)c1sc(Nc2cccc(Cl)c2)nc1C"
Marked response: inactive

Exam item: Param item: CCOC(=O)C1=C(N)Oc2c(sc3c(C)cccc23)C1c1ccc(Cl)cc1 (stereo not given)
Marked response: inactive

Exam item: And "C/C(=C(/c1ccccc1)c1ccc(N2C(=O)c3cccc4c(N5CCN(C)CC5)ccc(c34)C2=O)cc1)c1ccccc1" ?
Marked response: inactive

Exam item: Similarly, "COc1cccc(Oc2ccccc2NC(=O)CNC(=O)c2cccc3ccccc23)c1" ?
Marked response: inactive

Exam item: Follow-up item: "COc1ccc2c(c1OC)C(=O)O[C@H]2[C@H]1c2c(cc3c(c2OC)OCO3)CCN1C"
Marked response: inactive

// data source = PubChem BioAssay (NCI)
